What pEC50 was measured for each of the following?
# Measurement target: UniProt Q9NR97
# Sequence (Q9NR97 27-1041): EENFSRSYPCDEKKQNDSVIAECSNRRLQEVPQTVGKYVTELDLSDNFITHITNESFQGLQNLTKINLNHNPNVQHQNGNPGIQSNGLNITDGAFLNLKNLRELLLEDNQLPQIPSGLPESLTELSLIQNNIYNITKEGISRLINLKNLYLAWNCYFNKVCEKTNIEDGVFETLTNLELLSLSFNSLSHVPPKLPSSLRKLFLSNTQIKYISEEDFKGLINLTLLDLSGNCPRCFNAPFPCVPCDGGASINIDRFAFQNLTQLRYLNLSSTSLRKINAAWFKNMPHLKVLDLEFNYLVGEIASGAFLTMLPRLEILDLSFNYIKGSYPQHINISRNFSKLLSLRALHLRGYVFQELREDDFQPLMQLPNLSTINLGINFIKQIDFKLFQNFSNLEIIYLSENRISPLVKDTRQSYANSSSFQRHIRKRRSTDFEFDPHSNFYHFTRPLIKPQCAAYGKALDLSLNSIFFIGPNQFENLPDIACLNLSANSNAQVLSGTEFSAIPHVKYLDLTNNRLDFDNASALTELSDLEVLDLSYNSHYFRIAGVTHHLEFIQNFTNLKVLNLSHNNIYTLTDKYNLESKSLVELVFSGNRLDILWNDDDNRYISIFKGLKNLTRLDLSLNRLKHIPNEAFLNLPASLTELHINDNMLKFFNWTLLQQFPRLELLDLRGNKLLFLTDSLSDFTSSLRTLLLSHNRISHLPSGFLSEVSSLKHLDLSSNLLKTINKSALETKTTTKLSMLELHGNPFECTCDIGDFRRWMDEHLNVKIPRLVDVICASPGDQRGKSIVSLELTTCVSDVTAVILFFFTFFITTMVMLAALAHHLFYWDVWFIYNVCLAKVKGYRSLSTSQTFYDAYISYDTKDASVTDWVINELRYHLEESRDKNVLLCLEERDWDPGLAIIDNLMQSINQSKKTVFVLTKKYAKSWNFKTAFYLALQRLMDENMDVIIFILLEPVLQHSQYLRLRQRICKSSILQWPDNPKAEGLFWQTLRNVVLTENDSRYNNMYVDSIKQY
# Method summary: PBMC assay for TLR8 (TNFα in supernatants by ELISA)
# Format: cell-based
# Parameters: Peripheral blood mononuclear cells (PBMCs) from human blood were isolated; endogenous in cells; host or cells: human PBMCs
# Measurement setup: human PBMCs incubated with compound overnight, MC50 = concentration at which 50% of maximum induction is seen
pEC50: −log10 of the molar value.

Compound: CCCN(CCC)C(=O)C1=Cc2ccc(OCc3ccccc3)cc2N=C(N)C1 [Compound 185]
pEC50: 6.00 to 7.00

Compound: CCCN(CCCO)C(=O)C1=Cc2ccc(-c3ccc(CC(=O)OC(C)C)cc3)cc2N=C(N)C1 [Compound 215]
pEC50: 7.00 to 9.00

Compound: CCCN(CCC)C(=O)C1=Cc2ccc(-c3ccc(C4COC(=O)O4)cc3)cc2N=C(N)C1 (stereo not drawn) [Compound 225]
pEC50: 6.00 to 7.00

# return pEC50 for each item in the list
1. CCOC(=O)C1=Cc2ccc(CCCN3CCOCC3)cc2N=C(N)C1 [Compound 200]
2. CCCN(CCC)C(=O)C1=Cc2ccc(-c3ccc(CC(=O)OCC)cc3)cc2N=C(N)C1 [Compound 192]
3. CCCN(CCCO)C(=O)C1=Cc2ccc(-c3ccc(CC(=O)OCC4CC4)cc3)cc2N=C(N)C1 [Compound 217]
4. NC1=Nc2cc(-c3ccc(C(=O)N4CCCC4)cc3)ccc2C=C(C(=O)NOCc2ccccc2)C1 [Compound 116]
5. CCCN(OCc1ccccc1)C(=O)C1=Cc2ccc(-c3ccc(C(=O)N4CCCC4)cc3)cc2N=C(N)C1 [Compound 118]
6. CCOC(=O)C1=Cc2ccc(-c3cncc(CO)c3)cc2N=C(N)C1 [Compound 199]

Key:
["7.00 to 9.00", "6.00 to 7.00", "7.00 to 9.00", "5.00 to 6.00", "7.00 to 9.00", "7.00 to 9.00"]

# return pEC50 for each item in the list
1. CCCN(CC1CCNCC1)C(=O)C1=Cc2ccc(-c3ccc(C(=O)N4CCCC4)cc3)cc2N=C(N)C1 [Compound 113]
2. CCCN(CCC)C(=O)C1=Cc2ccc(-c3ccc(OCC(=O)O)cc3)cc2N=C(N)C1 [Compound 196]
3. CCCN(CCC)C(=O)C1=Cc2ccc(-c3ccc(C(O)CO)cc3)cc2N=C(N)C1 (stereo not drawn) [Compound 224]

Key:
["6.00 to 7.00", "4.00 to 5.00", "6.00 to 7.00"]
